A compilation of published IC50 results with Angiotensin-converting enzyme (Oryctolagus cuniculus, UniProt P12822).
quantityMeasured: IC50 (nM)

(P) CC(C)[C@H](S)C(=O)NC1(C(=O)N[C@@H](Cc2ccc(O)cc2)C(=O)O)CCCCC1
(Q) C[C@H](CS)C(=O)N1[C@@H]2C[C@@H]2C[C@H]1C(=O)O
(R) O=C(O)CN1C[C@H](c2ccsc2)SC[C@H](N[C@@H](CCc2ccccc2)C(=O)O)C1=O
(S) CCCCc1nc(Cl)c(/C=C/C(=O)c2ccc3sc4ccccc4c3c2)n1C
Query string: With the 4 compounds above, produce a list ordered by ascending IC50. Give the labels in the order specified.
Result string: Q, P, R, S

(P) CC(=O)NCCC[C@H](OP(=O)(O)CCCCc1ccccc1)C(=O)N1CCC[C@H]1C(=O)O
(Q) NCCC[C@H](OP(=O)(O)CCCCc1ccccc1)C(=O)N1CCC[C@H]1C(=O)O
(R) CC(=O)SCC(C)C(=O)N(CC(=O)O)c1ccc(C)cc1 (stereo unspecified)
Query string: List items by IC50 in falling order. # the answer lists labels in the order requested
Result string: Q, R, P
(Q: 390 nM, R: 130 nM, P: 42 nM)

(P) CSC[C@@H](NC(=O)[C@@H](CS)Cc1ccccc1)C(=O)O
(Q) O=C(N[C@H](CCC(=O)N1c2ccccc2C[C@H]1C(=O)OCc1cccnc1)C(=O)O)OCc1ccccc1
Query string: Which is greater in IC50, the first item P or the second item Q ? API: response body contains the label of the selected item.
Result string: Q
(Q: 350 nM, P: 77 nM)

(a) O=C(O)C1CCCN1C(=O)CCS (stereo unspecified)
(b) CCCCc1nc(Cl)c(C(=O)N[C@@H](Cc2ccccc2)C(=O)O)n1C
Query string: Select the item with the higher value of IC50 from the options a and b listed. Indicate which entry you chose by stating its label.
Result string: a
(a: 200 nM, b: 100 nM)

====

Consider the following IC50 data for UniProtKB P12822, collected from several reports.
quantityMeasured: IC50 (nM)

CC(C)[C@H](S)C(=O)NC1(C(=O)N[C@@H](Cc2c[nH]c3ccccc23)C(=O)O)CCCC1: 10
CCCCC(C)CP(=O)(O)O[C@@H](CCCCN)C(=O)N1CCC[C@H]1C(=O)O (stereo partly drawn): 40
O=C(O)[C@H](CCc1ccccc1)NCC(=O)N1CCC[C@H]1C(=O)O: 230

(I) C[C@H](NC(=O)[C@H](CS)Cc1ccccc1)C(=O)N1CCC[C@H]1C(=O)O
(II) N=C(N)NCCCC[C@H](OP(=O)(O)CCCCc1ccccc1)C(=O)N1CCC[C@H]1C(=O)O
Query string: # query: argmin of IC50 over I and II Your answer should be the label of the entry you select.
Result string: II
(II: 6.2 nM, I: 210 nM)

====

Field IC50: reported value for Angiotensin-converting enzyme (Oryctolagus cuniculus, UniProt P12822); entries drawn from several documents.
quantityMeasured: IC50 (µM)

Consider the reported IC50 for these compounds:
COc1cccc(/C=C/C(=O)c2cc(OC)c(OC)c(OC)c2)c1: 622
CCN1CCCC1CN(CC(=O)O)C(=O)C(C)CS (stereo not given): 0.64
NCCCC[C@H](OP(=O)(O)CCCCC1CCCCC1)C(=O)N1CCC[C@H]1C(=O)O: 0.055
CC(C)CC(CS)C(=O)N[C@@H](C)C(=O)N1CCC[C@@H]1C(=O)O (stereo not given in full): 0.49
CC[C@H](C)[C@H](NC(C)=O)C(=O)N[C@@H](CC(C)C)C(=O)N[C@@H](Cc1ccc(O)cc1)P(=O)(O)O: 0.1
CCCCc1nc(Cl)c(/C=C/C(=O)c2ccc[nH]2)n1C: 2.24
CCCCCCCCP(=O)(O)O[C@@H](CCCCN)C(=O)N1CCC[C@H]1C(=O)O: 0.038
O=CN(O)C[C@@H](Cc1ccccc1)C(=O)N[C@H]1CCc2ccccc2N(CC(=O)O)C1=O: 0.0053

(I) O=C(N[C@H](CSCCc1ccccc1)C(=O)O)[C@@H](CS)Cc1ccccc1
(II) COc1ccc(/C=C/C(=O)c2cc(OC)c(OC)c(OC)c2)cc1O
(III) O=C(O)[C@H](Cc1ccc(O)cc1)NC(=O)C1(NC(=O)C2(S)CCCC2)CCCC1
(IV) CCCCc1nc(Cl)c(C2CC(c3ccc([N+](=O)[O-])cc3)=NN2C(C)=O)n1C (stereo not given)
Query string: Output the entries ranked by IC50 from maximum down to minimum. Record the ranking as a list of labels in the requested order.
Result string: IV, II, I, III

(I) O=C(O)CN1C(=O)[C@@H](N[C@@H](CCc2ccccc2)C(=O)O)CCc2ccccc21 (stereo in doubt; 4f)
(II) COc1cccc(C2CC(c3cc(OC)c(OC)c(OC)c3)=NN2C)c1 (stereo not given)
(III) COc1cc(C(=O)/C=C/c2ccccc2)cc(OC)c1OC
(IV) N[C@H](CCC(=O)N1c2ccccc2C[C@H]1C(=O)O)C(=O)O
Query string: Sort the 4 compounds by IC50; largest first, smallest last. Give the labels in the order specified.
Result string: II, III, IV, I

(P) CCOC(=O)[C@H](CCc1ccccc1)N[C@H]1CCc2ccccc2N(CC(=O)O)C1=O
(Q) COc1cc(/C=C/C(=O)c2cc(OC)c(OC)c(OC)c2)ccc1O
Query string: From the items above, decide which of P and Q has the lower IC50 reading. Answer with the label corresponding to your selection.
Result string: P

(P) CSCC[C@@H](NC(=O)C(CS)Cc1ccccc1)C(=O)O (stereo not given in full)
(Q) O=C(N[C@H](CSCc1ccccc1)C(=O)O)[C@@H](CS)Cc1ccccc1
Query string: Which is greater in IC50, the first item P or the second item Q ? Pick one and reply with its label.
Result string: P
(P: 0.12 µM, Q: 0.024 µM)

(P) Cc1ccc(N(CC(=O)O)C(=O)C(C)CS)cc1 (stereo not given)
(Q) CC(=O)SCC(C)C(=O)N(CC(=O)O)Cc1ccco1 (stereo not given)
Query string: Select one. Lower IC50: P or Q Use the label to indicate which entry you chose.
Result string: P
(P: 0.005 µM, Q: 0.7 µM)
